Biological target: plasma purified human complement protein C3 (human) (UniProt P01024)
Sequence (P01024 23-667, chain 1 of 2): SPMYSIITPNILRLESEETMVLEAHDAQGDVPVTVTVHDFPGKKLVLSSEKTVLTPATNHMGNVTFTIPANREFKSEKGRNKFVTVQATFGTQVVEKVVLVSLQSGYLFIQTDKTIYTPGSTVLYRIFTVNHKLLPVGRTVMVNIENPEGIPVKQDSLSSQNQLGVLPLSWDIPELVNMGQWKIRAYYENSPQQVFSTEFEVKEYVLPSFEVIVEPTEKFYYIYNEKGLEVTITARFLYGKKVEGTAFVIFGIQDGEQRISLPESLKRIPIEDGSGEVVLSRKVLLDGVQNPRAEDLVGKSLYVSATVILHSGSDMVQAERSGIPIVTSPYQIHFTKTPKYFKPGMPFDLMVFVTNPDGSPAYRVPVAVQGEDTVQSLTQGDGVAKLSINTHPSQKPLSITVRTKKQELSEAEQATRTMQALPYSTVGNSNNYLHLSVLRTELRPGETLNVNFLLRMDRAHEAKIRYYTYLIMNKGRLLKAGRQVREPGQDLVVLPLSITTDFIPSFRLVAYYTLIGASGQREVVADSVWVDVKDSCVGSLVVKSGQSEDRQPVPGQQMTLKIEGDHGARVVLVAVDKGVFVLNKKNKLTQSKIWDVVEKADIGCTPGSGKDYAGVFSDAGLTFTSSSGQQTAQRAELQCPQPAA
Sequence (P01024 672-1663, chain 2 of 2): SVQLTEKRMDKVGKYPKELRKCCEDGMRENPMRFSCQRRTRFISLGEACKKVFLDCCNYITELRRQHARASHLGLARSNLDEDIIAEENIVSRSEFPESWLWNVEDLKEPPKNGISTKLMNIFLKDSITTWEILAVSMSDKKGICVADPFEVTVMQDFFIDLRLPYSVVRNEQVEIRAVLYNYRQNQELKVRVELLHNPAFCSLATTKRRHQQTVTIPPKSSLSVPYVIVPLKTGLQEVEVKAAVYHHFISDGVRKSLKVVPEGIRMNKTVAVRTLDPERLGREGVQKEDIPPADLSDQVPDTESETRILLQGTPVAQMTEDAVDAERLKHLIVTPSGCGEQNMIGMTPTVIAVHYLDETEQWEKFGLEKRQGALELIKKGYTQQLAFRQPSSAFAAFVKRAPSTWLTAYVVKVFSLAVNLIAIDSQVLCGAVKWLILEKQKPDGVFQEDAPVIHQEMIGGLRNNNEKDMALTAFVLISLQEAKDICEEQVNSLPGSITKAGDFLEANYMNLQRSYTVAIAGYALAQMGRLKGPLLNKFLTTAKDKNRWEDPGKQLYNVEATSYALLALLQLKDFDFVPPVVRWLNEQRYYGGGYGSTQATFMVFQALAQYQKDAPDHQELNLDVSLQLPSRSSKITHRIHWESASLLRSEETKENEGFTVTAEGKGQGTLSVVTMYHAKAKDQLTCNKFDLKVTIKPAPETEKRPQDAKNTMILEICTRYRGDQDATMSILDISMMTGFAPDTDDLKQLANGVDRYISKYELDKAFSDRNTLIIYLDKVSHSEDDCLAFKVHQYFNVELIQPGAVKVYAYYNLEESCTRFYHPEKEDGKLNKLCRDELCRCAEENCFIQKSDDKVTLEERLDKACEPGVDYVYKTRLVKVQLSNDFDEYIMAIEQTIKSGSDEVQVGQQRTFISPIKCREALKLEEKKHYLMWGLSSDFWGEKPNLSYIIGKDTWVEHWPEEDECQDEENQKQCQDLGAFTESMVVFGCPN
Assay: cell-based or functional assay
measurementName: EC50 of hC3 cleavage (nM)
Numbers only, in nM.

Use these answered entries as a reference point.
MTSP-1 H40R/I41H/F97D/F99L/C122S/Q192G/D217I/K224S (enzyme) VVGGTDADEGEWPWQVSLHALGQGRHCGASLISPNWLVSAAHCYIDDRGFRYSDPTQWTAFLGLHDQSQRSAPGVQERRLKRIISHPFFNDDTLDYDIALLELEKPAEYSSMVRPISLPDASHVFPAGKAIWVTGWGHTQYGGTGALILQKGEIRVINQTTCENLLPQQITPRMMCVGFLSGGVDSCGGDSGGPLSSVEADGRIFQAGVVSWGIGCAQRNSPGVYTRLPLFRDWIKENTGV :: 19.3
MTSP-1 Q38H/I41S/D60bF/F60eT/ins97aV/F97D/T98P/F99L/C122S/H143Q/G151N/Q175L/Q192G (enzyme) VVGGTDADEGEWPWQVSLHALGHGHSCGASLISPNWLVSAAHCYIDFRGTRYSDPTQWTAFLGLHDQSQRSAPGVQERRLKRIISHPFFNDDVPLDYDIALLELEKPAEYSSMVRPISLPDASHVFPAGKAIWVTGWGQTQYGGTNALILQKGEIRVINQTTCENLLPQLITPRMMCVGFLSGGVDSCGGDSGGPLSSVEADGRIFQAGVVSWGDGCAQRNKPGVYTRLPLFRDWIKENTGV :: 3.07
MTSP-1 ins97aA/F97G/T98N/F99L/C122S/Q175M/Q192T/K224A (enzyme) VVGGTDADEGEWPWQVSLHALGQGHICGASLISPNWLVSAAHCYIDDRGFRYSDPTQWTAFLGLHDQSQRSAPGVQERRLKRIISHPFFNDGANLDYDIALLELEKPAEYSSMVRPISLPDASHVFPAGKAIWVTGWGHTQYGGTGALILQKGEIRVINQTTCENLLPQMITPRMMCVGFLSGGVDSCTGDSGGPLSSVEADGRIFQAGVVSWGDGCAQRNAPGVYTRLPLFRDWIKENTGV :: 200
MTSP-1 H40K/I41M/F97D/F99L/C122S/Q175M/D217N/K224R (enzyme) VVGGTDADEGEWPWQVSLHALGQGKMCGASLISPNWLVSAAHCYIDDRGFRYSDPTQWTAFLGLHDQSQRSAPGVQERRLKRIISHPFFNDDTLDYDIALLELEKPAEYSSMVRPISLPDASHVFPAGKAIWVTGWGHTQYGGTGALILQKGEIRVINQTTCENLLPQMITPRMMCVGFLSGGVDSCQGDSGGPLSSVEADGRIFQAGVVSWGNGCAQRNRPGVYTRLPLFRDWIKENTGV :: 144

From here, focus on the item given below.
# EC50 of hC3 cleavage (binder: MTSP-1 Q38H/I41S/D60bT/F60eS/Y60gW/D96K/F97G/ins97aV/T98P/F99L/C122S/Q175L/Q192D (enzyme) VVGGTDADEGEWPWQVSLHALGHGHSCGASLISPNWLVSAAHCYIDTRGSRWSDPTQWTAFLGLHDQSQRSAPGVQERRLKRIISHPFFNKGVPLDYDIALLELEKPAEYSSMVRPISLPDASHVFPAGKAIWVTGWGHTQYGGTGALILQKGEIRVINQTTCENLLPQLITPRMMCVGFLSGGVDSCDGDSGGPLSSVEADGRIFQAGVVSWGDGCAQRNKPGVYTRLPLFRDWIKENTGV ) is 5.25
